System: SW480
procedure details: cell viability (CellTiter-Glo) relative to plate median (fraction of plate median); higher = more viable cells
test context: 5 µM; treatment time 24 h; reporter: 7TFP
measurement name: cell viability
Answers are plain numbers.

# map each compound to its cell viability
1. CN(C)c1ccc(O)c2c1C[C@H]1C[C@H]3[C@H](N(C)C)C(O)=C(C(N)=O)C(=O)[C@@]3(O)C(O)=C1C2=O
2. CCc1cnn2c(NCc3ccc[n+]([O-])c3)cc(N3CCCC[C@H]3CCO)nc12 [Dinaciclib]
3. O=C(O)/C=C/c1ccccc1
4. CC(C)C[C@@H](NC(=O)[C@H](C)NC(=O)CNC(=O)[C@@H](NC=O)C(C)C)C(=O)N[C@@H](C)C(=O)N[C@@H](C(=O)N[C@H](C(=O)N[C@H](C(=O)N[C@@H](Cc1c[nH]c2ccccc12)C(=O)N[C@H](CC(C)C)C(=O)N[C@@H](Cc1c[nH]c2ccccc12)C(=O)N[C@H](CC(C)C)C(=O)N[C@@H](Cc1c[nH]c2ccccc12)C(=O)N[C@H](CC(C)C)C(=O)N[C@@H](Cc1c[nH]c2ccccc12)C(=O)NCCO)C(C)C)C(C)C)C(C)C

0.943
1.32
1.09
0.613

# map each compound to its cell viability
1. CCN(CC)CCOC(=O)C(Cc1cccc2ccccc12)CC1CCCO1 (configuration not stated)
2. COc1ccc(-c2cc(=O)c3cc(OC)ccc3o2)cc1
3. O=C(O)CCCN1C(=O)c2cccc3cccc(c23)C1=O

1: 1.02; 2: 0.998; 3: 0.995

* * *

Tested on: HCT116
procedure details: cell viability (CellTiter-Glo) relative to plate median (fraction of plate median); higher = more viable cells
test context: 5 µM; treatment time 24 h; reporter: TCF4/Wnt
measurement name: cell viability

Some compounds with known cell viability results, for comparison:
compound: CCOC(=O)Nc1nc2ccccc2[nH]1
result: 0.887
--
compound: CCN(CC)CCOC(=O)C1(C2CCCCC2)CCCCC1
result: 1.02
--
compound: O=C1NCC2(CCN(CCc3ccccc3)CC2)O1
result: 1.06
--
compound: COc1c2ccoc2nc2c(OC)c(OCC(O)C(C)(C)O)ccc12 (stereo not drawn)
result: 1
--
compound: COc1c(O)cccc1O
result: 0.962

# map each compound to its cell viability
1. CCCC(CCC)C(=O)O
2. CCCCCCCCNC(C)C(O)c1ccc(SC(C)C)cc1 (stereo not drawn)

1: 1.09; 2: 1.05

* * *

System: SW480
procedure details: TCF/Wnt firefly luciferase reporter signal relative to plate median (fraction of plate median); higher = higher Wnt reporter signal
test context: 5 µM; treatment time 24 h; reporter: 7TFP
measurement name: TCF/Wnt firefly luciferase reporter signal
Give bare numbers.

Some compounds with known TCF/Wnt firefly luciferase reporter signal results, for comparison:
compound: CCCc1nc2c(C)cc(-c3nc4ccccc4n3C)cc2n1Cc1ccc(-c2ccccc2C(=O)O)cc1
recorded number: 1

compound: CC(C(=O)O)c1cccc(Oc2ccccc2)c1 (centres undefined)
recorded number: 1.11

compound: CC(=O)O[C@]1(C(C)=O)CC[C@H]2[C@@H]3C=C(C)C4=CC(=O)CC[C@]4(C)[C@H]3CC[C@@]21C
recorded number: 1

compound: CC(=O)O[C@@H]1CC2C(C)(C)[C@H](O)CC[C@]2(C)C2CC[C@@]3(C)[C@H](c4ccoc4)OC(=O)C4OC43[C@@]21C (stereo partly drawn) [alpha-DIHYDROGEDUNOL]
recorded number: 0.954

compound: CC[C@H]1OC(=O)[C@H](C)C(=O)[C@H](C)[C@@H](O[C@@H]2O[C@H](C)C[C@H](N(C)C)[C@H]2O)[C@](C)(OC)C[C@@H](C)C(=O)[C@H](C)[C@H]2N(CCCCn3cnc(-c4cccnc4)c3)C(=O)O[C@]12C
recorded number: 1.07

# map each compound to its TCF/Wnt firefly luciferase reporter signal
1. CC(=O)C1=C(CO)C(=O)c2cccc(O)c2C1=O
2. COc1cc2c(cc1OC)Cc1cc(OC)c(OC)cc1Cc1cc(OC)c(OC)cc1C2
3. CO[C@H]1/C=C/O[C@@]2(C)Oc3c(C)c(O)c4c(O)c(c5c(nc6cc(C)ccn65)c4c3C2=O)NC(=O)/C(C)=C\C=C\[C@H](C)[C@H](O)[C@@H](C)[C@@H](O)[C@@H](C)[C@H](OC(C)=O)[C@@H]1C
4. COc1ccc(-c2cc(=O)c3c(OC)c(OC)c(OC)c(OC)c3o2)cc1
5. CCCCCC/C=C\CCCCCCCc1cccc(O)c1C(=O)O
6. C/C1=C\CC(C)(C)/C=C/CC2(C)OC2CC1 (centres undefined)

1: 1.01; 2: 0.865; 3: 1.11; 4: 0.961; 5: 0.996; 6: 0.889

# map each compound to its TCF/Wnt firefly luciferase reporter signal
1. Cc1ccc(=O)n(-c2ccccc2)c1
2. COc1c2occc2c(OC)c2c(=O)cc(C)oc12
3. N/C(=N\C(=O)c1nc(Cl)c(N)nc1N)NCc1ccccc1
4. Cc1cccc(C)c1OCC(C)N (centres undefined)

1: 1.08; 2: 1.12; 3: 1.04; 4: 1.05

# map each compound to its TCF/Wnt firefly luciferase reporter signal
1. Oc1ccc(OCc2ccccc2)cc1
2. C1CCN2C[C@@H]3C[C@@H](CN4CCCC[C@@H]34)[C@H]2C1
3. C[N+]1(C)[C@@H]2CC[C@H]1C[C@@H](OC(=O)C(O)c1ccccc1)C2 (some centres undefined)
4. CN1C(=O)CC[C@H]1c1cccnc1

[0.754, 0.948, 1.01, 0.94]
